Origin of the recorded values: ChEMBL document CHEMBL1122501

The compounds listed here are annotated with their Diet.
Tested on: Rattus norvegicus
Measurement notes: In vivo Triglyceride lowering activity at dose as 0.05 % of the diet.
Assay type: functional
Return type: number; implicit unit %.

{"columns": ["Mol", "Diet (%)"],
 "data": [
  ["O=C(O)c1ccc(NCCc2ccc(OCc3ccccc3)cc2)cc1", 81],
  ["O=C(O)c1ccc(NCCCCCc2ccccc2)cc1", 78]
]}

// moving on: another record for Diet
Kindly note the recorded Diet for CCOC(=O)c1ccc(NCCc2cccc3ccccc23)cc1 , which is 80

---

Test system: Rattus norvegicus
Measurement notes: In vivo triglyceride lowering activity, dosed at 0.03 % of the diet
Format: functional
Readout name: serum triglycerides, percent of control (%)
Report the value in % with no unit label.

Illustrative cases are given below, each with its answer.
{"columns": ["Compound", "Units symbol", "serum triglycerides, percent of control"],
 "data": [
  ["CCOC(=O)c1ccc(NCCCCCC(=O)c2ccc(Cl)cc2)cc1", "%", 56],
  ["O=C(O)c1ccc(NCCCc2cccc(F)c2)cc1", "%", 61]
]}

// Cc1ccc(CCCNc2ccc(C(=O)O)cc2)cc1 : serum triglycerides, percent of control value = 54

Consider CCCCCCCCCC/C=C/CCCNc1ccc(C(=O)[O-])cc1.[Na+] . Its measured serum triglycerides, percent of control is 117

The measured serum triglycerides, percent of control associated with CCOC(=O)c1ccc(NCCCc2ccc(OC)cc2)cc1 reads 59

Entry under test: CCOC(=O)c1ccc(NC/C=C/c2ccc(Cl)cc2)cc1 . Its serum triglycerides, percent of control was 45

Quick note, serum triglycerides, percent of control for O=[N+]([O-])c1ccc(CCCNc2ccccc2)cc1 landed at 61

Form: compound = CCOC(=O)c1ccc(NCCCc2ccc(N)cc2)cc1 ; serum triglycerides, percent of control = 70

Short answer for O=C(O)c1ccc(NC/C=C/c2ccc(Cl)cc2)cc1 : serum triglycerides, percent of control was 48

Recorded serum triglycerides, percent of control (compound CCOC(=O)c1ccc(NCCCc2cccc(F)c2)cc1 ): 55

Lab note: CC(C(=O)O)c1ccc(NCCCc2ccc(Cl)cc2)cc1 (stereo not drawn) gave serum triglycerides, percent of control of 63

Data point: CCOC(=O)c1ccc(NCCCCCCc2ccc(Cl)cc2)cc1 ; serum triglycerides, percent of control = 68

Lookup result for CCOC(=O)c1ccc(NCc2ccc(Cl)cc2)cc1 ; measured serum triglycerides, percent of control: 53

The reported serum triglycerides, percent of control of the compound CCCCCCCCc1ccc(CCCNc2ccc(C(=O)O)cc2)s1 was 72

So, CCOC(=O)c1ccc(NCCCCCCc2ccco2)cc1 ? Its serum triglycerides, percent of control was 64

Lookup result for CCOC(=O)c1ccc(NCCCc2cccc(Br)c2)cc1 ; measured serum triglycerides, percent of control: 60

Value of serum triglycerides, percent of control reported for the compound O=C(O)c1ccc(NC/C=C/c2ccccc2)cc1 is 43

// serum triglycerides, percent of control value for O=C([O-])c1ccc(NCc2ccc(Cl)cc2)cc1.[Na+] : 61

Memo: CCCCCCCCCCCCCCCCCCCNc1ccc(C(=O)[O-])cc1.[Na+] , reported serum triglycerides, percent of control: 99

Sure, the documented serum triglycerides, percent of control for CCCCCCCCC/C=C/CCCNc1ccc(C(=O)OCC)cc1 is 75

---

Test system: Rattus norvegicus
Measurement notes: In vivo Sterol lowering activity at dose as 0.03 % of the diet.
Assay type: functional
Listing: serum sterol level, percent of control of selected molecules
Record the value in %, omitting the unit from your answer.

Consider the reported serum sterol level, percent of control for these molecules:
{"columns": ["Molecule", "System name", "Units symbol", "Numeric value"],
 "data": [
  ["CCOC(=O)c1ccc(NC(=O)CCc2ccc(C)cc2)cc1", "Rattus norvegicus", "%", 99],
  ["CCOC(=O)c1ccc(NC/C=C/c2ccc(Cl)cc2)cc1", "Rattus norvegicus", "%", 100],
  ["O=C(OCC(O)CO)c1ccc(NCCCc2ccccc2)cc1 (stereo unspecified)", "Rattus norvegicus", "%", 85],
  ["O=C(CCCCC(=O)c1ccc(Cl)cc1)Nc1ccc(C(=O)O)cc1", "Rattus norvegicus", "%", 94],
  ["O=C(O)c1ccc(NCCCc2cccc(F)c2)cc1", "Rattus norvegicus", "%", 97]
]}

get_value(item= CCOC(=O)c1cccc(NCCCc2ccc(Cl)cc2)c1 , readout=serum sterol level, percent of control) returns 93

For this molecule ( CCOC(=O)c1ccc(NCCCc2cccc(F)c2)cc1 ), measured serum sterol level, percent of control is 88

Entry under test: COc1ccc(CCCNc2ccc(C(=O)O)cc2)cc1 . Its serum sterol level, percent of control was 86

Query O=C([O-])c1ccc(NCCCc2ccc(Cl)cc2)cc1.[Na+] yields serum sterol level, percent of control of 92

response.value for O=C(O)c1ccc(NC/C=C/c2ccc(Cl)cc2)cc1 (field: serum sterol level, percent of control) = 92

Reported serum sterol level, percent of control of CCOC(=O)c1ccc(NCCCc2ccc(Cl)cc2)cc1C(=O)OCC : 99

Lab note: measured serum sterol level, percent of control of CCOC(=O)c1ccc(NCc2cccs2)cc1 was 98

Lab note: measured serum sterol level, percent of control of O=C(O)c1ccc(NCCCc2ccc(Cl)c(Cl)c2)cc1 was 89

serum sterol level, percent of control in this record for O=C(O)c1ccc(NCCCCCC(O)c2ccc(Cl)cc2)cc1 (stereo unspecified) : 100

Entry under test: O=C(O)c1ccc(NCCCc2cccc(Cl)c2)cc1 . Its serum sterol level, percent of control was 90

Entry under test: O=C(O)c1ccc(N(CCCc2ccc(Cl)cc2)CCCc2ccc(Cl)cc2)cc1 . Its serum sterol level, percent of control was 84

In plain terms, CCOC(=O)c1ccc(NCCCc2ccccc2F)cc1 has a documented serum sterol level, percent of control of 100

Form field serum sterol level, percent of control, entry O=[N+]([O-])c1ccc(CCCNc2ccccc2)cc1 : 88

Lab book: serum sterol level, percent of control of CCOC(=O)c1ccc(NCCCc2ccco2)cc1 noted as 94

Quick note, serum sterol level, percent of control for O=C(O)c1cccc(NCCCc2ccc(Cl)cc2)c1 landed at 89

---

Each entry below carries its reported Diet.
Tested on: Rattus norvegicus
Measurement notes: In vivo triglyceride lowering activity dosed at 0.05 % of the diet
Type: functional

{"columns": ["Mol", "Result"],
 "data": [
  ["CCCCCCCCCCCCCCCCCCCNc1ccc(C(=O)O)cc1", "<46%"]
]}

Quick note, Diet for CCCCCCCCCCCCCCNc1ccc(C(=O)O)cc1 landed at <50%

The compound listed as CCCCCCCOc1ccc(CNc2ccc(C(=O)O)cc2)cc1 shows Diet equal to <70%

The measured Diet associated with O=C(O)c1ccc(NCCCCCCCCCCCc2ccccc2)cc1 reads <69%

# Diet of CCOC(=O)c1ccc(NCCCCCCCCc2ccccc2)cc1 = <65%

Recorded result, CCCCCCCCCCc1ccc(CNc2ccc(C(=O)OCC)cc2)cc1 , Diet: <69%

Kindly note the recorded Diet for CCCCCCCCCCCCCNc1ccc(C(=O)O)cc1 , which is <36%

---

Tested on: Rattus norvegicus
Measurement notes: In vivo triglyceride lowering activity dosed at 0.05 % of the diet
Assay type: functional
Readout name: Diet

Sample records with Diet:
{"columns": ["Mol", "Diet"],
 "data": [
  ["CCCCCCCCCCCCCCCCCCNc1ccc(C(=O)O)cc1", "<71%"],
  ["O=C(O)c1ccc(NCCCCCCCCCc2ccccc2)cc1", "<58%"]
]}

Consider the record given below.
In plain terms, CCCCCCCCCC/C=C/CCCNc1ccc(C(=O)O)cc1 has a documented Diet of <83%

---

System name: Sterol O-acyltransferase 1 (Rattus norvegicus) (UniProt O70536)
Sequence (O70536 whole entry): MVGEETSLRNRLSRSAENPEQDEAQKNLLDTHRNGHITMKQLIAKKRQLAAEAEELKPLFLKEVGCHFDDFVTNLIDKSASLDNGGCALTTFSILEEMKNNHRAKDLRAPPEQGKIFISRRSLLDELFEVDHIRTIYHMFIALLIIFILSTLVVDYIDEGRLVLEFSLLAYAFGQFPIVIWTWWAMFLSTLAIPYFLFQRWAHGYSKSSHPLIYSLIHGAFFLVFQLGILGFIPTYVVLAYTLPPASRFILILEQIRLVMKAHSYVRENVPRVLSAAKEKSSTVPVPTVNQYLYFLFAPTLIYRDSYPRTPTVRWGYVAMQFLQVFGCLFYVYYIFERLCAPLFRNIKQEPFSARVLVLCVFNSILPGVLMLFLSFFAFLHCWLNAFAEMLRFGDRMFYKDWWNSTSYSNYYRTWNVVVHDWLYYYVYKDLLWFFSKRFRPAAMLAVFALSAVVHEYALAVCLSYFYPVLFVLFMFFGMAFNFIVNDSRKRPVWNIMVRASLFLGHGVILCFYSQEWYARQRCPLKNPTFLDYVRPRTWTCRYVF
Measurement notes: In vitro inhibitory activity against acyl coenzyme A:cholesterol acyltransferase (ACAT)
Parameters: concentration or dose not given beside the values
Measurement parameters: concentration not given here
Would you mind sorting the entries by inhibition according to these classes? bottom bin: < 20%; middle bin: ≥ 20% and < 40%; top bin: ≥ 40%

# example entries with known answers
{"columns": ["Molecule", "Assigned class"],
 "data": [
  ["O=C(O)c1ccc(NCCCCCCc2ccc(Cl)cc2)cc1", "middle bin"],
  ["O=C(O)c1ccc(NCc2ccc(-c3ccccc3)cc2)cc1", "bottom bin"],
  ["O=C(CCCCCc1ccc(Cl)cc1)Nc1ccc(C(=O)O)cc1", "bottom bin"]
]}

In: // bin(item) where item = CCOC(=O)c1ccc(NCCCCCCc2cccs2)cc1
Out: top bin

In: Exam item: assign CCOC(=O)c1ccc(NCCCc2ccccc2[N+](=O)[O-])cc1 to the correct category.
Out: bottom bin

---

System name: UniProtKB O70536
Measurement notes: In vitro inhibitory activity against acyl coenzyme A:cholesterol acyltransferase (ACAT)
Set-up: concentration or dose not given beside the values
Measurement parameters: concentration not given here
The reader will find reported inhibition values listed item by item below.

Use these answered entries as a reference point.
{"columns": ["Mol", "inhibition"],
 "data": [
  ["CCCCCCCCCCCCCCCCNc1cccc(C(=O)O)c1", "< 34%"],
  ["CCCCCCCCc1ccc(CNc2ccc(C(=O)OCC)cc2)s1", "< 32%"],
  ["CCCCCCCCCCCCCNc1ccc(C(=O)OCC)cc1", "< 22%"],
  ["CCCCCCCCc1ccc(CCCNc2ccc(C(=O)OCC)cc2)s1", "< 57%"]
]}

Continue with the compound presented below.
Sample C=CCCCCCCCC/C=C/CCCNc1ccc(C(=O)OCC)cc1 ; inhibition observed: < 50%
